Hello, the source for this data is patent US11649255B2, in case you need it.

Target: recombinant human HPK1 (Homo sapiens (Human))
Sequence (Q92918 whole entry): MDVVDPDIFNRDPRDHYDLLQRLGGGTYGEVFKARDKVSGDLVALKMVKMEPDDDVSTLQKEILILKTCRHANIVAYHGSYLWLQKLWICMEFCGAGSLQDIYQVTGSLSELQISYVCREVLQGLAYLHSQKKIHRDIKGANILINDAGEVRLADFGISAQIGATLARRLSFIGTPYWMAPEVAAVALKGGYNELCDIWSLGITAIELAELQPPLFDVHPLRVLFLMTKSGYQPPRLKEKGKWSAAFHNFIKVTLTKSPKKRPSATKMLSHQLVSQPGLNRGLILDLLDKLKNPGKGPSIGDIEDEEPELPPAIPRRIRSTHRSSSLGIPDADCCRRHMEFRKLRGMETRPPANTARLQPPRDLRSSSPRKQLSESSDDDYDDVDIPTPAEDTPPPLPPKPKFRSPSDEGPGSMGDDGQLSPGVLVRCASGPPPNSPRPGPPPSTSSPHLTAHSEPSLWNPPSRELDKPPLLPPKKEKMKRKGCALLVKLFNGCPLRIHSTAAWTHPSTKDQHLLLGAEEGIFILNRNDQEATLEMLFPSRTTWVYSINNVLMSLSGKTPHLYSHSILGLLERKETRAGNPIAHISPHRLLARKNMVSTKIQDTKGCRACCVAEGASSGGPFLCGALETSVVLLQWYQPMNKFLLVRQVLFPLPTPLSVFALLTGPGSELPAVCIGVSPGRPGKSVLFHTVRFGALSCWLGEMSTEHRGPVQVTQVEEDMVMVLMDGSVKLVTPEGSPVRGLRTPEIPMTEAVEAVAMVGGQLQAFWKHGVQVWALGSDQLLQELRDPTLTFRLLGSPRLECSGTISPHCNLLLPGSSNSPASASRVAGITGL
Test: HPK1 kinase assay (ADP-Glo)
Conditions: 25 μM ATP, MBP substrate
Method: HPK1 kinase activity was measured by Promega's ADP-Glo™ kinase assay. […] Luminescence was detected after 30-min room temperature incubation with the Molecular device I3X plate reader. The IC50 values were calculated from a series of percent inhibition values determined at a range of inhibitor concentration using software routines as implemented in the GraphPad Prism 7 software and SigmaPlot13.0.
measured_metric: IC50

Summary for this compound, CN(C)c1c(F)cc(-c2ccn3nc(NC(=O)[C@@H]4C[C@@H]4F)cc3c2)c2cn[nH]c12 : IC50 is < 100 nM

Record Cc1ccc2[nH]ncc2c1-c1ccc2nc(NC(=O)C3CC(F)(F)C3)sc2c1 , field IC50: 501 to 1000 nM

Given item COc1c(F)cc2[nH]ncc2c1-c1ccc2nc(NC(=O)[C@@H]3C[C@@H]3F)sc2n1 , the value recorded as its IC50 is < 100 nM

Summary for this compound, O=C(Nc1cn2cc(-c3c(Cl)c(F)c(-c4cnc[nH]4)c4[nH]ncc34)ccc2n1)[C@@H]1C[C@@H]1F : IC50 is 101 to 500 nM

The compound CN(C)C(=O)c1c(F)cc2[nH]ncc2c1-c1ccc2nc(NC(=O)[C@@H]3C[C@@H]3F)cn2c1 showed IC50 equal to > 1000 nM

IC50 reading for Cc1c(F)cc2[nH]nc(Br)c2c1-c1ccc2nc(NC(=O)[C@@H]3C[C@@H]3F)sc2c1 : 501 to 1000 nM

Notebook: CC(C)c1c(F)cc2[nH]ncc2c1-c1ccn2nc(NC(=O)[C@@H]3C[C@@H]3F)cc2c1 , IC50 read as < 100 nM

Please fill in: IC50 reported for CCN(C)c1c(F)c(SC)c(-c2ccn3nc(NC(=O)[C@@H]4C[C@@H]4F)cc3c2)c2cn[nH]c12 = < 100 nM

Reported IC50 of CCOc1c(F)c(CC)c(-c2ccc3nc(NC(=O)[C@@H]4C[C@@H]4F)sc3c2)c2cn[nH]c12 : < 100 nM

Just so you know, measured IC50 for CSc1c(F)c(F)c2[nH]ncc2c1-c1ccn2nc(NC(=O)[C@@H]3C[C@H]3F)cc2c1 came out at < 100 nM

# IC50 of CSc1ccc(-c2ccc3nc(NC(=O)[C@@H]4C[C@@H]4F)cn3c2)c2cn[nH]c12 = 101 to 500 nM

Lab note: CN(c1c(F)c(Cl)c(-c2ccn3nc(NC(=O)[C@@H]4C[C@@H]4F)cc3c2)c2cn[nH]c12)C1CCC1 gave IC50 of < 100 nM

Value of IC50 reported for the compound O=C(Nc1cc2cc(-c3c(Cl)c(F)c(NCC4CC4)c4[nH]ncc34)ccn2n1)[C@@H]1C[C@@H]1F is < 100 nM

Lab note: measured IC50 of CCc1c(F)c(SCC(=O)O)c2[nH]ncc2c1-c1ccn2nc(NC(=O)[C@@H]3C[C@@H]3F)cc2c1 was < 100 nM

IC50 recorded for this compound, Cc1c(F)c(N(C)C)c2[nH]ncc2c1-c1ccc2nc(NC(=O)[C@@H]3C[C@@H]3F)sc2n1 , is < 100 nM

====

biological target: recombinant human HPK1 (Homo sapiens (Human)); experiment: HPK1 kinase assay (ADP-Glo); type: biochemical; settings: 25 μM ATP, MBP substrate
measured_metric: IC50

Entry CCOc1c(F)c(SC)c2[nH]ncc2c1-c1ccn2nc(NC(=O)[C@@H]3C[C@@H]3F)cc2c1 , tested on recombinant human HPK1 (Homo sapiens (Human)), has a reported IC50 of < 100 nM

Short answer on recombinant human HPK1 (Homo sapiens (Human)) for N#Cc1ccc2[nH]ncc2c1-c1ccc2nc(NC(=O)C3CC3)sc2c1 , IC50: 101 to 500 nM

recombinant human HPK1 (Homo sapiens (Human)) data for O=C(Nc1cn2cc(-c3c(Cl)c(F)c(Cn4ccnn4)c4[nH]ncc34)ccc2n1)[C@@H]1C[C@@H]1F ; its IC50: < 100 nM

Summary: O=C(O)c1c(F)c(Cl)c(-c2ccc3nc(NC(=O)[C@@H]4C[C@@H]4F)cn3c2)c2cn[nH]c12 , recombinant human HPK1 (Homo sapiens (Human)), IC50 = > 1000 nM

Recorded IC50 for CP(C)(=O)c1c(F)c(Cl)c(-c2ccc3nc(NC(=O)[C@@H]4C[C@@H]4F)cn3c2)c2cn[nH]c12 on recombinant human HPK1 (Homo sapiens (Human)) was > 1000 nM

Fill in: recombinant human HPK1 (Homo sapiens (Human)) IC50 for O=C(Nc1cc2cc(-c3c(Cl)c(F)c(N4CCOCC4)c4[nH]ncc34)ccn2n1)[C@@H]1C[C@@H]1F = < 100 nM

O=C(Nc1nc2ccc(-c3ccc(Cl)c4[nH]ncc34)cc2s1)C1CC1 on recombinant human HPK1 (Homo sapiens (Human)) gives IC50 = > 1000 nM
